- assay.overview: ATG_AP_1_CIS: Attagene CIS-FACTORIAL HepG2 Assay for human Activator Protein 1 (AP-1) (AID 2282931)
- study.conditions: HepG2 Attagene cis-factorial AP-1 reporter mRNA; actives raise or lower the signal
Active and inactive are the calls of the source. The calls were made as follows: active = hit-call score of the fitted dose curve at least 0.9, where 1 is the maximum; inactive = score below 0.9.
Outcome codes: 1 = active, -1 = inactive

• CCC1(c2ccccc2)C(=O)N=C(O)NC1=O (centres undefined) = -1
• O=NN1CCCC1 = -1
• Cc1ccc([N+](=O)[O-])cc1C = -1
• O=P(Oc1ccccc1)(Oc1ccccc1)Oc1ccccc1 = 1
• CCN(CC)c1ccccc1 = -1
• Cc1ccc(C(=O)Cl)cc1 = -1
• CC(=O)c1ccc(-c2ccccc2)cc1 = -1
• O=C(O)C1C(C(=O)O)C2(Cl)C(Cl)=C(Cl)C1(Cl)C2(Cl)Cl (centres undefined) = -1
• CCOP(=S)(Oc1ccc([N+](=O)[O-])cc1)c1ccccc1 (centres undefined) = 1
• CCCCN(CCCC)SN(C)C(=O)Oc1cccc2c1OC(C)(C)C2 = -1
• CCCCC(CC)COP(=O)(Oc1ccccc1)Oc1ccccc1 (centres undefined) = 1
• CCN(CC)C1CCCCC1 = -1
• ClC(Cl)(Cl)c1ccccc1 = -1
• CC(C)Nc1ccc(Nc2ccccc2)cc1 = 1
